biological target: HIV strain MDR (L100I, K103N, Y181C, E138G, V179I, L2214F, V278V/I and A327A/V in HIV reverse transcriptase); test: microbe, parasite or virus in culture; type: cell-based, HIV-1; conditions: MDR HIV strain (multiple RT mutations); MT4 LTR-EGFP cells; three days after infection
MDR pEC50 (−log EC50) of 6 or higher: condition met. Under 6: condition not met.

[[record]]
compound = "Cc1cc(C=CC#N)cc(C)c1Nc1cc(CNCc2ccncc2)nc(Nc2ccc(C#N)cc2)n1 (mixture of isomers) [Compound 30]"
group_label = "condition not met"

[[record]]
compound = "Cc1cc(C=CC#N)cc(C)c1Nc1cc(CNCCc2ccc(S(N)(=O)=O)cc2)nc(Nc2ccc(C#N)cc2)n1 (mixture of isomers) [Compound 17]"
group_label = "condition not met"

[[record]]
compound = "Cc1cc(C=CC#N)cc(C)c1Nc1cc(CNCC2COC(C)(C)O2)nc(Nc2ccc(C#N)cc2)n1 (mixture of isomers) [Compound 16]"
group_label = "condition not met"

[[record]]
compound = "Cc1cc(C=CC#N)cc(C)c1Nc1cc(Cn2ccnc2)nc(Nc2ccc(C#N)cc2)n1 (mixture of isomers) [Compound 19]"
group_label = "condition not met"

[[record]]
compound = "Cc1cc(/C=C/C#N)cc(C)c1Nc1cc(COC(N)=O)nc(Nc2ccc(C#N)cc2)n1 [Compound 33]"
group_label = "condition met"

[[record]]
compound = "Cc1cc(C=CC#N)cc(C)c1Nc1cc(CNCC2CCCO2)nc(Nc2ccc(C#N)cc2)n1 (mixture of isomers) [Compound 28]"
group_label = "condition not met"


---

system: HIV strain L100I + K103N; assay: microbe, parasite or virus in culture; format: cell-based, HIV-1; conditions: HIV strain L100I + K103N; MT4 LTR-EGFP cells; three days after infection
RESULT_TYPE: L100I + K103N pEC50 (−log EC50)

[[record]]
molecule = "Cc1cc(C=CC#N)cc(C)c1Nc1cc(CNCCc2ccccn2)nc(Nc2ccc(C#N)cc2)n1 (mixture of isomers) [Compound 20]"
result_type = "L100I + K103N pEC50 (−log EC50)"
endpoint_value = 6.33

[[record]]
molecule = "Cc1cc(C=CC#N)cc(C)c1Nc1cc(CNCc2cccs2)nc(Nc2ccc(C#N)cc2)n1 (mixture of isomers) [Compound 31]"
result_type = "L100I + K103N pEC50 (−log EC50)"
endpoint_value = 7.13

[[record]]
molecule = "Cc1cc(C=CC#N)cc(C)c1Nc1cc(CNCC2COC(C)(C)O2)nc(Nc2ccc(C#N)cc2)n1 (mixture of isomers) [Compound 16]"
result_type = "L100I + K103N pEC50 (−log EC50)"
endpoint_value = 7.06

[[record]]
molecule = "CON(C)Cc1cc(Nc2c(C)cc(C=CC#N)cc2C)nc(Nc2ccc(C#N)cc2)n1 (mixture of isomers) [Compound 18]"
result_type = "L100I + K103N pEC50 (−log EC50)"
endpoint_value = 7.48

[[record]]
molecule = "Cc1cc(C=CC#N)cc(C)c1Nc1cc(CNCCc2ccc(S(N)(=O)=O)cc2)nc(Nc2ccc(C#N)cc2)n1 (mixture of isomers) [Compound 17]"
result_type = "L100I + K103N pEC50 (−log EC50)"
endpoint_value = 6.41

[[record]]
molecule = "Cc1cc(C=CC#N)cc(C)c1Nc1cc(CN2CCOCC2)nc(Nc2ccc(C#N)cc2)n1 (mixture of isomers) [Compound 12]"
result_type = "L100I + K103N pEC50 (−log EC50)"
endpoint_value = 6.50

[[record]]
molecule = "Cc1cc(/C=C/C#N)cc(C)c1Nc1cc(CN2CCN(C)CC2)nc(Nc2ccc(C#N)cc2)n1 [Compound 13]"
result_type = "L100I + K103N pEC50 (−log EC50)"
endpoint_value = 7.20

[[record]]
molecule = "Cc1cc(C=CC#N)cc(C)c1Nc1cc(Cn2ccnc2)nc(Nc2ccc(C#N)cc2)n1 (mixture of isomers) [Compound 19]"
result_type = "L100I + K103N pEC50 (−log EC50)"
endpoint_value = 6.83

[[record]]
molecule = "C=CCOCc1cc(Nc2c(C)cc(/C=C/C#N)cc2C)nc(Nc2ccc(C#N)cc2)n1 [Compound 2]"
result_type = "L100I + K103N pEC50 (−log EC50)"
endpoint_value = 7.12

[[record]]
molecule = "COCC(C)NCc1cc(Nc2c(C)cc(C=CC#N)cc2C)nc(Nc2ccc(C#N)cc2)n1 (mixture of isomers) [Compound 23]"
result_type = "L100I + K103N pEC50 (−log EC50)"
endpoint_value = 6.98

[[record]]
molecule = "Cc1cc(C=CC#N)cc(C)c1Nc1cc(CNCc2ccncc2)nc(Nc2ccc(C#N)cc2)n1 (mixture of isomers) [Compound 30]"
result_type = "L100I + K103N pEC50 (−log EC50)"
endpoint_value = 7.56

[[record]]
molecule = "Cc1cc(C=CC#N)cc(C)c1Nc1cc(CNCC2CC2)nc(Nc2ccc(C#N)cc2)n1 (mixture of isomers) [Compound 14]"
result_type = "L100I + K103N pEC50 (−log EC50)"
endpoint_value = 7.00

[[record]]
molecule = "COCCNCc1cc(Nc2c(C)cc(C=CC#N)cc2C)nc(Nc2ccc(C#N)cc2)n1 (mixture of isomers) [Compound 15]"
result_type = "L100I + K103N pEC50 (−log EC50)"
endpoint_value = 7.42

[[record]]
molecule = "Cc1cc(/C=C/C#N)cc(C)c1Nc1cc(COC(N)=O)nc(Nc2ccc(C#N)cc2)n1 [Compound 33]"
result_type = "L100I + K103N pEC50 (−log EC50)"
endpoint_value = 7.10


---

Measured melting point accompanies every entry in the list below.
RESULT_TYPE: melting point (°C)

[[record]]
molecule = "Cc1cc(/C=C/C#N)cc(C)c1Nc1cc(C(=O)NCc2ccco2)nc(Nc2ccc(C#N)cc2)n1"
inequality_sign = "="
endpoint_value = 256

[[record]]
molecule = "Cc1cc(/C=C/C#N)cc(C)c1Nc1cc(/C=N/O)nc(Nc2ccc(C#N)cc2)n1"
inequality_sign = "="
endpoint_value = 220

[[record]]
molecule = "Cc1cc(/C=C/C#N)cc(C)c1Nc1cc(C(=O)NCCF)nc(Nc2ccc(C#N)cc2)n1"
inequality_sign = ">"
endpoint_value = 250

[[record]]
molecule = "Cc1cc(/C=C/C#N)cc(C)c1Nc1cc(-c2cccnc2)nc(Nc2ccc(C#N)cc2)n1"
inequality_sign = "="
endpoint_value = 180

[[record]]
molecule = "Cc1cc(/C=C/C#N)cc(C)c1Nc1cc(C(=O)NCCC#N)nc(Nc2ccc(C#N)cc2)n1"
inequality_sign = "="
endpoint_value = 250

[[record]]
molecule = "Cc1cc(/C=C/C#N)cc(C)c1Nc1cc(C(O)c2nccs2)nc(Nc2ccc(C#N)cc2)n1 (centres unmarked)"
inequality_sign = "="
endpoint_value = 147

[[record]]
molecule = "COCCNC(=O)c1cc(Nc2c(C)cc(/C=C/C#N)cc2C)nc(Nc2ccc(C#N)cc2)n1"
inequality_sign = "="
endpoint_value = 130

[[record]]
molecule = "Cc1cc(/C=C/C#N)cc(C)c1Nc1cc(C(=O)NCc2ccncc2)nc(Nc2ccc(C#N)cc2)n1"
inequality_sign = "="
endpoint_value = 202


---

system: HIV strain L100I + K103N; test: microbe, parasite or virus in culture; assay type: cell-based, HIV-1; settings: HIV strain L100I + K103N; MT4 LTR-EGFP cells; three days after infection
# note: boundary value 7 maps to NO; L100I + K103N pEC50 (−log EC50) below it maps to YES

[[record]]
compound = "C=CCNCc1cc(Nc2c(C)cc(C=CC#N)cc2C)nc(Nc2ccc(C#N)cc2)n1 (mixture of isomers) [Compound 24]"
group_label = "NO"

[[record]]
compound = "CC(=O)NCCNCc1cc(Nc2c(C)cc(C=CC#N)cc2C)nc(Nc2ccc(C#N)cc2)n1 (mixture of isomers) [Compound 22]"
group_label = "YES"

[[record]]
compound = "Cc1cc(C=CC#N)cc(C)c1Nc1cc(CNCCCN2CCOCC2)nc(Nc2ccc(C#N)cc2)n1 (mixture of isomers) [Compound 29]"
group_label = "YES"

[[record]]
compound = "Cc1cc(C=CC#N)cc(C)c1Nc1cc(CNCC2CCCO2)nc(Nc2ccc(C#N)cc2)n1 (mixture of isomers) [Compound 28]"
group_label = "NO"

